Documented Activity across a set of compounds
# Test system: Mus musculus
# PROCEDURE TEXT: Clastogenic effect on C57BL mouse assessed as bone marrow cells with abberation at 100 mg/kg, ip after 24 hrs
# Format: functional
# MEASUREMENT PARAMETERS: route intraperitoneal
In your response, put the unit directly after the numeric value.

COP(=O)(CNC1(C(=O)O)CCCCCCC1)OC : 5.43%
COP(=O)(CNC1(C(=O)O)CCCCCC1)OC : 3.33%

Q. # lookup: Activity of COP(=O)(CNC1(C(=O)O)CCCCCCCCCCC1)OC
A. 4.29%

Q. Ok, now COP(=O)(CNC1(C(=O)O)CCCC1)OC
A. 7%

Q. COP(=O)(CNC1(C(=O)O)CCCCC1)OC , same question.
A. 8.34%
